Please provide measured enrichment ratio for the entries that follow.
B1: PhoQ; a variant is named by its letters at X, in order, P23837 (parent)
chain: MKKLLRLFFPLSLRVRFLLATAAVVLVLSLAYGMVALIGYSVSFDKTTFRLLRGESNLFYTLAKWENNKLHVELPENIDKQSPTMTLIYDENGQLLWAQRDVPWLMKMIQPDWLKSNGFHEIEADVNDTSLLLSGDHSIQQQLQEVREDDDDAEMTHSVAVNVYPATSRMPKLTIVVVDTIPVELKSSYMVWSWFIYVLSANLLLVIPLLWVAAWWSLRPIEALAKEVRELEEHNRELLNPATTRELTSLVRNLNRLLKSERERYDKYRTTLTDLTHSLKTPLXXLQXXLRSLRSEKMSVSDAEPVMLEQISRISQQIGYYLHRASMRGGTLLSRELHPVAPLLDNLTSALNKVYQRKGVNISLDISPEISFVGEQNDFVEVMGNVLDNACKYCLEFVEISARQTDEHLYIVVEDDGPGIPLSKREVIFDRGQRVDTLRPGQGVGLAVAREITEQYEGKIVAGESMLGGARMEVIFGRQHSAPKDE

# Variants of: B1
# Experiment Summary: enrichment ratio after two sorts for PhoP signalling (ratio (wild type AVST 3.29)); higher = more functional
# Assay Context: with PhoP (E. coli)
The full ranking holds about 140,000 sequences; the median of “enrichment ratio after two sorts for PhoP signalling” is about 0, and the highest 2% start at about 11. The sample as a whole holds a higher share of the highest values than the screen did.

// known answers, use as guide
{"columns": ["Mutation Code", "Result"],
 "data": [
  ["QYWG", 16.3],
  ["DWKH", "≤ 0.25"],
  ["LDKY", "≤ 0.25"]
]}

Hey, can you go through the list below and give me enrichment ratio for every item?
1. QDSM
2. QSHQ
3. YYVE
4. TIQM

Key:
["≤ 0.25", 22.4, "≤ 0.25", 48.5]

Report enrichment ratio for each item below.
1. IQCM
2. TPSM

Key:
≤ 0.25
≤ 0.25
